Values were extracted from patent US20240002495A1.

Target: T1, 6His-AviTag-linked cynomolgus monkey IL-33 (residues 112 to 269) (cynomolgus monkey, UniProt O95760 112-269 (human entry), biotin on the AviTag portion (BirA) in the SPR of Example 7; used without biotinylation in Example 10)
T1 construct: GenBank EHH57404 printed; also called cynomolgus monkey IL-33 protein; mature cynomolgus monkey IL-33
T1 chain: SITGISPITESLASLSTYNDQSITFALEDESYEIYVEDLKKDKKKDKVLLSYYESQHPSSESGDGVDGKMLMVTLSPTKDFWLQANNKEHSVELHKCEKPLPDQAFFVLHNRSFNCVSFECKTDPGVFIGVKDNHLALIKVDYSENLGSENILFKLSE
Assay: SPR, IL-33 on chip, Fab supernatant as analyte
Listing of recorded Cynomolgus Monkey IL-33 Binding Amount (RU) by entry.
# unit: RU | format: bare number

binder	value measured
A10-1C04 (Fab) (Fab, V domains shown, Fab secreted by E. coli, tested as culture supernatant; also called V1) VH: EVQLLESGGGLVQPGGSLRLSCAASGFTFSDYYMNWVRQAPGKGLEWVSSISRYSSYIYYADSVKGRFTISRDNSKNTLYLQMNSLRAEDTAVYYCARDIGGMDVWGQGTLVTVSS VL: QSVLTQPPSASGTPGQRVTISCTGSSSNIGAVYDVHWYQQLPGTAPKLLIYRNNQRPSGVPDRFSGSKSGTSASLAISGLRSEDEADYYCQTYDSSRWVFGGGTKLTVL	20

From here, focus on the item given below.
Req: What measured Cynomolgus Monkey IL-33 Binding Amount (RU) goes with A28-1G07 (Fab) (Fab, V domains shown, Fab secreted by E. coli, tested as culture supernatant; also called V24) VH: EVQLLESGGGLVQPGGSLRLSCAASGFTFSNYYMHWVRQAPGKGLEWVSSISARSSYRYYADSVKGRFTISRDNSKNTLYLQMNSLRAEDTAVYYCARLATRHSAFDIWGQGTLVTVSS VL: QSVLTQPPSASGTPGQRVTISCSGSSSNIGHNAVSWYQQLPGTAPKLLIYASNMRRLGVPDRFSGSKSGTSASLAISGLRSEDEADYYCGAWDDSQKVVVFGGGTKLTVL ?
Resp: 173
